- Test system: HMEC cells
- experiment: pH2AX foci 24 h after contacting, Table 4 lower part (HMEC endothelial cells)
- Assay type: cell-based, human
- assay_setup: line cell blank (below Hasp); 30 μM; 24 hours after contacting
Measured pH2AX, listed per entry.
Write the number in foci without appending the unit.

Worked examples, 5 compounds total:
[Cl][Cu][Cl]	1.6
O=[N+]([O-])[O-].O=[N+]([O-])[O-].[Pb+2]	7.5
[Cl][Al]([Cl])[Cl]	5.7
CC(=O)[O-].CC(=O)[O-].[Cd+2] [Cd-acetate]	5.5
O=S(=O)([O-])[O-].[Cu+2]	3.4

Next compound, please.
Reported pH2AX for `[Cl][Cd][Cl]` was 3.7

###

Measured Micronuclei, listed per entry.
- System: HMEC cells
- experiment: Micronuclei per 100 cells 24 h after contacting, Table 4 lower part (HMEC)
- Type: cell-based, human
- assay_setup: line cell blank (below Hasp), 30 μM
Write the number in per 100 cells without appending the unit.

Worked examples, 5 compounds total:
[Cl][Al]([Cl])[Cl]	5
[Cl][Cd][Cl]	9
O=[N+]([O-])[O-].O=[N+]([O-])[O-].[Pb+2]	7
O=S(=O)([O-])[O-].[Cu+2]	4.7
CC(=O)[O-].CC(=O)[O-].[Cd+2] [Cd-acetate]	10

Next compound, please.
Item: `[Cl][Cu][Cl]` | System: HMEC cells | Micronuclei: 5.3

###

- Test system: HMEC cells
- experiment: pH2AX foci 24 h after contacting, Table 4 lower part (HMEC endothelial cells)
- Type: cell-based, human
- assay_setup: line cell blank (below Hasp); 300 μM; 24 hours after contacting
Measured pH2AX, listed per entry.
Write the number in foci without appending the unit.

Item: `O=S(=O)([O-])[O-].[Cu+2]` | System: HMEC cells | pH2AX: 20.1

Item: `[Cl][Cu][Cl]` | System: HMEC cells | pH2AX: 5.3

Item: `O=[N+]([O-])[O-].O=[N+]([O-])[O-].[Pb+2]` | System: HMEC cells | pH2AX: 21

Item: `[Cl][Al]([Cl])[Cl]` | System: HMEC cells | pH2AX: 4.5

###

- Test system: HMEC cells
- experiment: Micronuclei per 100 cells 24 h after contacting, Table 4 lower part (HMEC)
- Assay type: cell-based, human
- assay_setup: line cell blank (below Hasp), 300 μM
reported_property: Micronuclei (per 100 cells)
Write the number in per 100 cells without appending the unit.

Worked examples, 2 compounds total:
O=S(=O)([O-])[O-].[Cu+2] [CuSO4]	9.3
[Cl][Cu][Cl] [CuCl2]	7.3

Reported Micronuclei for [Cl][Al]([Cl])[Cl] [AlCl3] was 7.33

Reported Micronuclei for O=[N+]([O-])[O-].O=[N+]([O-])[O-].[Pb+2] [Pb(NO3)2] was 20

###

Measured Micronuclei, listed per entry.
- Test system: HMEC cells
- experiment: Micronuclei per 100 cells 24 h after contacting, Table 4 lower part (HMEC)
- Type: cell-based, human
- assay_setup: line cell blank (below Hasp), 10 μM
Write the number in per 100 cells without appending the unit.

Worked examples, 5 compounds total:
[Cl][Cd][Cl] [CdCl2]	3.5
[Cl][Cu][Cl] [CuCl2]	6.7
O=[N+]([O-])[O-].O=[N+]([O-])[O-].[Pb+2] [Pb(NO3)2]	0
O=S(=O)([O-])[O-].[Cu+2] [CuSO4]	5
CC(=O)[O-].CC(=O)[O-].[Cd+2] [Cd-acetate]	5

Reported Micronuclei for [Cl][Al]([Cl])[Cl] [AlCl3] was 3.75

Taken from patent US20180238860A1.
